Origin of values: patent US4554353A

# Target Entity: Muscarinic Receptor
# Experimental Details: Muscarinic Receptor Binding Assay (3H-QNB displacement, rat brain homogenate)
# Experimental Conditions: inhibition of specific 3H-QNB binding by 50%, 0.15 nM 3H-QNB, pH 7.4, 25° C., 1 hour
Field 'label' (enum: Met / Not met). Set to Met when IC50 is strictly under 0.5 µM; else Not met.

Incoming: Would you kindly verify if IC50 of CCCN(CCC)CCCC1(c2ccccc2Cl)CC(=O)NC1=O (centres unmarked) [Example 14] is strictly less than 0.5 µM?
Outgoing: Not met

* * *

# Target Entity: Muscarinic Receptor
# Experimental Details: Muscarinic Receptor Binding Assay (3H-QNB displacement, rat brain homogenate)
# Experimental Conditions: inhibition of specific 3H-QNB binding by 50%, 0.15 nM 3H-QNB, pH 7.4, 25° C., 1 hour
# IC50 per entry

Consider the worked cases shown below.
CC1CCCC(C)N1CCC1(c2ccccc2Cl)CC(=O)NC1=O (stereo not shown)    470 nM
CC(C)N(CCC1(c2ccccc2Cl)CC(=O)NC1=O)C(C)C (stereo not shown)    300 nM
CC(C)N(CCC1(c2ccccc2)CC(=O)NC1=O)C(C)C (stereo not shown)    140 nM

Query molecule follows.
Incoming: Can you share its IC50? I mean this molecule: CCN(CC)CCC1(c2ccccc2)CC(=O)NC1=O (stereo not shown) [Formula II (Prior Art), reference compound]
Outgoing: 20 nM
